molecular target: T1, human TLR3 extracellular domain (ECD) (human, UniProt O15455 24-703); assay: ELISA, huTLR3 ECD coated, mAb titrated, anti-human IgG-peroxidase
T1 construct: amino acids 1-703 of human TLR3; the structural model covers residues 30-687; also called huTLR3 ECD; TLR3 ECD
Recorded EC50, one value per entry.

binder	EC50
mAb 6 (antibody, human IgG4 S228P, V domains shown, human IgG4 with S229P; also called candidate 6; Fab 6) VH: QVELQQSGPGLVKPSQTLSLTCAISGDSVSTRSAAWGWIRQSPGRGLEWLGRIYMRSKWYNDYAVSVKSRITINPDTSKNQFSLQLNSVTPEDTAVYYCARHTYPYLSFDVWGQGTLVTVSS VL: DIELTQPPSVSVAPGQTARISCSGDALGGYFVSWYQQKPGQAPVLVIYDDDNRPSGIPERFSGSNSGNTATLTISGTQAEDEADYYCGSYDSNSLTVFGGGTKLTVL	0.019 µg/mL
mAb 9 (antibody, human IgG4 S228P, V domains shown, human IgG4 with S229P; also called candidate 9; Fab 9) VH: QVELQQSGPGLVKPSQTLSLTCAISGDSVSSNSAAWGWIRQSPGRGLEWLGIIQIRSKWYNDYALSVKSRITINPDTSKNQFSLQLNSVTPEDTAVYYCARYSYPFYSIDYWGQGTLVTVSS VL: DIELTQPPSVSVAPGQTARISCSGDNIGSYYVHWYQQKPGQAPVLVIYEDSERPSGIPERFSGSNSGNTATLTISGTQAEDEADYYCQSYDSQFSFGVFGGGTKLTVL	0.0226 µg/mL
mAb 18 (antibody, human IgG4 S228P, V domains shown, human IgG4 with S229P; also called candidate 18; Fab 18) VH: QVELQQSGPGLVKPSQTLSLTCAISGDSVSSNSAAWGWIRQSPGRGLEWLGIIQKRSKWYNNYAVSVKSRITINPDTSKNQFSLQLNSVTPEDTAVYYCARYSYPFYSIDYWGQGTLVTVSS VL: DIELTQPPSVSVAPGQTARISCSGDNIGSYYVHWYQQKPGQAPVLVIYEDSERPSGIPERFSGSNSGNTATLTISGTQAEDEADYYCQSYDSQFSFGVFGGGTKLTVL	0.00968 µg/mL
mAb 8 (antibody, human IgG4 S228P, V domains shown, human IgG4 with S229P; also called candidate 8; Fab 8) VH: QVELQQSGPGLVKPSQTLSLTCAISGDSVSSNSAAWGWIRQSPGRGLEWLGIIQTRSKWYNDYAVSVKSRITINPDTSKNQFSLQLNSVTPEDTAVYYCARYSYPFYSIDYWGQGTLVTVSS VL: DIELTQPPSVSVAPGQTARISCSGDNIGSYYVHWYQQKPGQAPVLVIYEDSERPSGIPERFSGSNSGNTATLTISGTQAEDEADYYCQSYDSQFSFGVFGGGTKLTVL	0.0186 µg/mL
mAb 14 (antibody, human IgG4 S228P, kappa, V domains shown, human IgG4 with S229P; also called candidate 14; Fab 14) VH: QVELVQSGAEVKKPGESLKISCKGSGYSFTNYWVGWVRQMPGKGLEWMGFIDPSDSYTNYAPSFQGQVTISADKSISTAYLQWSSLKASDTAMYYCARELYQGYMDTFDSWGQGTLVTVSS VL: DIQMTQSPSSLSASVGDRVTITCRASQSIGLYLAWYQQKPGKAPKLLIYAASSLQSGVPSRFSGSGSGTDFTLTISSLQPEDFATYYCQQAETVSPTFGQGTKVEIKR	0.0336 µg/mL
mAb 2 (antibody, human IgG4 S228P, V domains shown, human IgG4 with S229P; also called candidate 2; Fab 2) VH: QVELVQSGAEVKKPGESLKISCKGSGYSFNNYWIGWVRQMPGKGLEWMGIIDPQDSWTNYAPSFQGQVTISADKSISTAYLQWSSLKASDTAMYYCARNIYEFDYWGQGTLVTVSS VL: DIQMTQSPSSLSASVGDRVTITCRASQGISSWLNWYQQKPGKAPKLLIYGASNLQSGVPSRFSGSGSGTDFTLTISSLQPEDFAVYYCQQYDDFSITFGQGTKVEIK	0.0531 µg/mL
mAb 4 (antibody, human IgG4 S228P, V domains shown, human IgG4 with S229P; also called candidate 4; Fab 4) VH: QVELQQSGPGLVKPSQTLSLTCAISGDSVSTRSAAWGWIRQSPGRGLEWLGKISYRSRWYNDYAVSVKSRITINPDTSKNQFSLQLNSVTPEDTAVYYCARHTYPYLSFDVWGQGTLVTVSS VL: DIELTQPPSVSVAPGQTARISCSGDALGGYFVSWYQQKPGQAPVLVIYDDDNRPSGIPERFSGSNSGNTATLTISGTQAEDEADYYCASYDGDEFTVFGGGTKLTVL	0.0128 µg/mL
mAb 10 (antibody, human IgG4 S228P, V domains shown, human IgG4 with S229P; also called candidate 10; Fab 10) VH: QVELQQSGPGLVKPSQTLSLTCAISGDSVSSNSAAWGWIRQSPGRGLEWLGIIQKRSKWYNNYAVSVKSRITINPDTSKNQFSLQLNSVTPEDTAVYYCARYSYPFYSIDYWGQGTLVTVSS VL: DIELTQPPSVSVAPGQTARISCSGDNIGSYYVHWYQQKPGQAPVLVIYEDSERPSGIPERFSGSNSGNTATLTISGTQAEDEADYYCQSYDTPVYSVFGGGTKLTVL	0.0158 µg/mL
